System: HepG2 cells
test-summary: HepG2 cell toxicity (MTT) assay
Type: cell-based
condition-details: read-out: HepG2 IC50; MTT, 48 hour incubation
The entries below come with measured IC50 values attached.

Recorded results for 2 molecules are shown here.
molecule="O=S(=O)(c1cccc(-c2ccc3ncnc(Nc4ccc(OCc5cccc(F)c5)c(Cl)c4)c3c2)c1)N1CCOCC1 [Compound 10k]" reported_result="> 20 µM"
molecule="O=S(=O)(c1ccc(-c2ccc3ncnc(Nc4ccc(OCc5cccc(F)c5)c(Cl)c4)c3c2)cc1)N1CCCCC1 [Compound 10l]" reported_result="> 20 µM"

q: Dear colleague, please send me the reported IC50 for O=S(=O)(c1cccc(-c2ccc3ncnc(Nc4ccc(OCc5cccc(F)c5)c(Cl)c4)c3c2)c1)N1CCCCC1 [Compound 10m] when you can.
a: > 20 µM

* * *

The entries below come with measured CC50 at 48 h values attached.
test-summary: HepG2 cell toxicity (MTT) assay
Type: cell-based
condition-details: human, HepG2 cells; Table 13; read-out: HepG2 TC50

compound="Fc1cccc(COc2ccc(Nc3nccc4ccc(-c5cccc(N6CCOCC6)c5)cc34)cc2Cl)c1 [NEU-947]" reported_result="> 15 µM"

q: Dear colleague, please send me the reported CC50 at 48 h for Fc1cccc(COc2ccc(Nc3nccc4cc(-c5cccc(N6CCOCC6)c5)ccc34)cc2Cl)c1 [NEU-946] when you can.
a: > 15 µM

q: Dear colleague, please send me the reported CC50 at 48 h for O=S(=O)(c1ccc(-c2ccc3ccnc(Nc4ccc(OCc5ccccc5)c(Cl)c4)c3c2)cc1)N1CCOCC1 [NEU-949] when you can.
a: > 15 µM

* * *

Tested on: L. major amastigote
test-summary: L. major amastigote assay
Assay type: cell-based
condition-details: Leishmania major
Structures can show the parent of a compound that is named as a salt.
assay-endpoint: EC50 (µM)

Recorded results for 6 molecules are shown here.
molecule=CN1CCCN(S(=O)(=O)c2ccc(-c3ccc4c(Nc5ccc(OCc6cccc(F)c6)c(Cl)c5)cnnc4c3)cc2)CC1 reported_result=0.24
molecule=CN1CCCN(S(=O)(=O)c2ccc(-c3ccc4c(Nc5ccc(OCc6cccc(F)c6)c(Cl)c5)nccc4c3)cc2)CC1 reported_result=4.4
molecule="O=S(=O)(c1ccc(-c2ccc3ncnc(Nc4ccc(OCc5cc(F)cc(F)c5F)c(Cl)c4)c3c2)cc1)N1CCOCC1 [Compound 20m, Hydrochloride]" reported_result=3
molecule=CN1CCCN(S(=O)(=O)c2ccc(-c3ccc4nncc(Nc5ccc(OCc6cccc(F)c6)c(Cl)c5)c4c3)cc2)CC1 reported_result=1.06
molecule=Fc1cccc(COc2ccc(Nc3ccnc4ccc(-c5cccc(N6CCOCC6)c5)cc34)cc2Cl)c1 reported_result=4
molecule=CN1CCN(S(=O)(=O)c2ccc(-c3ccc4nccc(Nc5ccc(OCc6cccc(F)c6)c(Cl)c5)c4c3)cc2)CC1 reported_result=2

(a) CN1CCN(S(=O)(=O)c2ccc(-c3ccc4c(Nc5ccc(OCc6cccc(F)c6)c(Cl)c5)ccnc4c3)cc2)CC1
(b) Fc1cccc(COc2ccc(Nc3nccc4ccc(-c5cccc(N6CCOCC6)c5)cc34)cc2Cl)c1
q: Hi team, can someone confirm which has the larger EC50: a or b ? Thanks. Record your answer as the label of the chosen record.
a: b

* * *

System: L. major amastigote
test-summary: L. major amastigote assay
Type: cell-based
condition-details: Leishmania major
pEC50: −log10 of the molar value.
assay-endpoint: pEC50

Recorded results for 2 compounds are shown here.
compound="O=S(=O)(c1ccc(-c2ccc3ncnc(Nc4ccc(OCc5cccc(F)c5)c(Cl)c4)c3c2)cc1)N1CCOCC1 [Compound 10a]" reported_result=5.80
compound=CN1CCN(S(=O)(=O)c2ccc(-c3ccc4nncc(Nc5ccc(OCc6cccc(F)c6)c(Cl)c5)c4c3)cc2)CC1 reported_result=5.72

(a) O=C(c1ccc(-c2ccc3ncnc(Nc4ccc(OCc5cccc(F)c5)c(Cl)c4)c3c2)cc1)N1CCOCC1 [Compound 23f]
(b) O=S(=O)(c1ccc(-c2ccc3ncnc(Nc4ccc(OCc5cccc(F)c5)cc4)c3c2)cc1)N1CCOCC1 [Compound 20n]
q: Hi team, can someone confirm which has the larger pEC50: a or b ? Thanks. Record your answer as the label of the chosen record.
a: b

* * *

test-summary: in vitro
condition-details: male, BALB/c, mouse, plasma, pH 7.4, % Bound R3
Protocol: Mice plasma (BALB/c mice, male—pool of 3 animals) was collected in-house using K2EDTA as anticoagulant. […] Glipizide (Cat #50402G) was purchased from Apin chemicals, Abingdon, Oxon. Albendazole (Cat #A4673) was purchased from Sigma. […] A 25 μL aliquot of warfarin and test compounds were crashed with 100 μL of acetonitrile containing internal standard (glipizide for warfarin and test compound) and vortexed for 5 minutes. […] Samples were monitored for parent compound in MRM mode using LC-MS/MS.
assay-endpoint: fraction unbound at 4 h, 5 μM
A bare number is all that is needed in reply.

q: Dear colleague, please send me the reported fraction unbound at 4 h, 5 μM for CC(=O)CC(c1ccccc1)c1c(O)c2ccccc2oc1=O (stereo not shown) [Warfarin] when you can.
a: 0.059

* * *

The entries below come with measured pEC50 values attached.
Tested on: L. major amastigote
test-summary: L. major amastigote assay
Format: cell-based
condition-details: Leishmania major
pEC50: −log10 of the molar value. Where a name gives a salt, the structure may show the parent alone.

Recorded results for 10 compounds are shown here.
compound=O=S(=O)(c1ccc(-c2ccc3c(Nc4ccc(OCc5ccccc5)c(Cl)c4)cnnc3c2)cc1)N1CCOCC1 measurement_target="L. major amastigote" reported_result="< 4.82"
compound="O=S(=O)(c1cccc(-c2ccc3ncnc(Nc4ccc(OCc5cccc(F)c5)c(Cl)c4)c3c2)c1)N1CCCCC1 [Compound 10m]" measurement_target="L. major amastigote" reported_result="< 4.82"
compound="O=S(=O)(c1ccc(-c2ccc3ncnc(Nc4ccc(OCc5cccc(F)c5)c(Cl)c4)c3c2)cc1)N1CCCCC1 [Compound 10l]" measurement_target="L. major amastigote" reported_result="< 4.82"
compound=O=S(=O)(c1ccc(-c2ccc3nccc(Nc4ccc(OCc5ccccc5)c(Cl)c4)c3c2)cc1)N1CCOCC1 measurement_target="L. major amastigote" reported_result="< 5.52"
compound=Fc1cccc(COc2ccc(Nc3ccnc4cc(-c5cccc(N6CCOCC6)c5)ccc34)cc2Cl)c1 measurement_target="L. major amastigote" reported_result="< 5.52"
compound="c1ccc(COc2ccc(Nc3ncnc4ccc(-c5cccc(N6CCOCC6)c5)cc34)cc2)cc1 [Compound 23n]" measurement_target="L. major amastigote" reported_result="< 4.82"
compound="O=S(=O)(c1cccc(-c2ccc3ncnc(Nc4ccc(OCc5cccc(F)c5)c(Cl)c4)c3c2)c1)N1CCOCC1 [Compound 10k]" measurement_target="L. major amastigote" reported_result="< 4.82"
compound=CN1CCN(S(=O)(=O)c2ccc(-c3ccc4c(Nc5ccc(OCc6cccc(F)c6)c(Cl)c5)nncc4c3)cc2)CC1 measurement_target="L. major amastigote" reported_result="< 4.82"
compound="O=S(=O)(c1ccc(-c2ccc3ncnc(Nc4ccc(OCc5ccc(F)cc5)c(Cl)c4)c3c2)cc1)N1CCOCC1 [Compound 20j, Hydrochloride]" measurement_target="L. major amastigote" reported_result="< 4.82"
compound=CN1CCN(S(=O)(=O)c2ccc(-c3ccc4ccnc(Nc5ccc(OCc6cccc(F)c6)c(Cl)c5)c4c3)cc2)CC1 measurement_target="L. major amastigote" reported_result="< 4.82"

Okay, now this compound:
q: Report value: pEC50, system: L. major amastigote, compound: `Fc1cccc(COc2ccc(Nc3cnnc4cc(-c5cccc(N6CCOCC6)c5)ccc34)cc2Cl)c1`
a: < 4.82

* * *

Tested on: P. falciparum D6
test-summary: P. falciparum D6 assay
Type: cell-based
condition-details: strain D6
pEC50: −log10 of the molar value.
assay-endpoint: pEC50

compound="Fc1cccc(COc2ccc(Nc3ncnc4ccc(-c5cccc(CN6CCOCC6)c5)cc34)cc2Cl)c1 [Compound 23c]" measurement_target="P. falciparum D6" reported_result=6.72

(I) Fc1cccc(COc2ccc(Nc3ncnc4ccc(-c5ccccc5)cc34)cc2Cl)c1 [NEU-706]
(II) Fc1cccc(COc2ccc(Nc3ncnc4ccc(-c5cccc(CN6CCCCC6)c5)cc34)cc2Cl)c1 [Compound 23i]
q: From the items above, decide which of I and II has the lower pEC50 reading. Record your answer as the label of the chosen record.
a: I
(I: 6.10, II: 7.41)

* * *

Tested on: L. major promastigote
test-summary: L. major promastigote assay
Type: cell-based
pEC50: −log10 of the molar value.
assay-endpoint: pEC50

Recorded results for 4 compounds are shown here.
compound="CN1CCN(S(=O)(=O)c2ccc(-c3ccc4ncnc(Nc5ccccc5)c4c3)cc2)CC1 [NEU-767]" reported_result=5.21
compound="CN1CCN(S(=O)(=O)c2ccc(-c3ccc4ncnc(Nc5ccc(Cl)cc5)c4c3)cc2)CC1 [NEU-769]" reported_result=5.34
compound="Fc1cccc(Cn2ncc3ccc(Nc4ncnc5ccc(-c6cccc(N7CCOCC7)c6)cc45)cc32)c1 [NEU-734]" reported_result=6.01
compound="CC(C)(C)OC(=O)N1CCN(c2ccc(-c3ccc4ncnc(Nc5ccc(OCc6cccc(F)c6)c(Cl)c5)c4c3)cc2)CC1 [NEU-634]" reported_result=5.51

(I) Cl.O=S(=O)(c1ccc(-c2ccc3ncnc(Nc4ccc(OCc5ccccc5F)c(Cl)c4)c3c2)cc1)N1CCOCC1 [Compound 20i, Hydrochloride]
(II) Fc1cccc(COc2ccc(Nc3ncnc4ccc(-c5ccc(CN6CCCCC6)cc5)cc34)cc2Cl)c1 [Compound 23j]
q: Hi team, can someone confirm which has the larger pEC50: I or II ? Thanks. Record your answer as the label of the chosen record.
a: I

The measurements presented in this section are drawn from patent US20150259331A1.
